# measurement.target: progesterone receptor (PR) (Homo sapiens, UniProt P06401)
# Construct: in live, intact (whole) cells using the human breast carcinoma T47D cell line; endogenous in cells
# protocol.summary: Progesterone receptor whole cell competition binding assay using T47D cells
# condition: intact T47D cells, 3 nM 3H-progesterone, 3 h at 37° C.
Would you mind telling me the reported log10(Ki) of each entry?
Use the decimal logarithm of Ki (nM).

These solved cases illustrate the format of a correct answer.
{"columns": ["compound", "log10(Ki)"],
 "data": [
  ["O=C1OC[C@@H](CF)N1c1nc(-c2ccc(Br)cc2)cs1", 1.50],
  ["CC1(C)COC(=O)N1c1nc(-c2ccc(C#N)cc2F)cs1", 2.23],
  ["CC[C@@H]1COC(=O)N1c1nc(-c2ccc(C#N)cc2)cs1", 1.37],
  ["CCC1COC(=O)N1c1nc(-c2ccc(Br)cc2)cs1 (centres unmarked)", 1.83],
  ["CC1COC(=O)N1c1nc(-c2ccc(Br)cc2)cs1 (centres unmarked)", 1.56],
  ["O=C1OC[C@@H](Cc2ccccc2)N1c1nc(-c2ccc(Br)cc2)cs1", 2.99],
  ["CC1(C)COC(=O)N1c1nc(-c2ccc(Br)cc2F)cs1", 1.66]
]}

Okay, next one:
Please fill in: log10(Ki) reported for N#Cc1ccc(-c2csc(N3C(=O)OC[C@H]3C(F)(F)F)n2)cc1 = 1.78

###

# measurement.target: progesterone receptor (PR) (Homo sapiens)
# Construct: in live, intact (whole) cells using the human breast carcinoma T47D cell line; endogenous in cells
# protocol.summary: Progesterone receptor whole cell competition binding assay using T47D cells
# condition: intact T47D cells, 3 nM 3H-progesterone, 3 h at 37° C.
parameter: pKi
Answers are plain numbers, as −log10 of the molar value.

The examples below pair each entry with its known result.
{"columns": ["compound", "pKi"],
 "data": [
  ["CCCCC1COC(=O)N1c1nc(-c2ccc(C#N)cc2)cs1 (stereo not drawn) [Example 48]", 6.89],
  ["CC[C@@H]1COC(=O)N1c1nc(-c2ccc(Br)cc2)cs1 [Example 9]", 7.21]
]}

--- query ---
Recorded pKi (compound CC(C)C1COC(=O)N1c1nc(-c2ccc(Br)cc2)cs1 (stereo not drawn) [Example 38] ): 6.97

###

Hi there, I'd appreciate the recorded melting point for every entry that follows.

Please review the following examples before continuing.
{"columns": ["molecule", "melting point"],
 "data": [
  ["N#Cc1ccc(-c2csc(-n3c(=O)oc4ccccc43)n2)cc1 [Example 54]", "244 to 245 °C"],
  ["CC1(C)COC(=O)N1c1nc(-c2sc(C#N)cc2Br)cs1 [Example 59]", "230 to 234 °C"],
  ["CC1(C)COC(=N)N1c1nc(-c2ccc(C#N)cc2)cs1 [Example 63]", "158 to 161 °C"],
  ["O=C1OCC2(CCCC2)N1c1nc(-c2ccc(Br)cc2)cs1 [Example 34]", "138 to 139 °C"],
  ["C[C@@H]1COC(=O)N1c1nc(-c2cccc(C#N)c2)cs1 [Example 17]", "187 to 189 °C"]
]}

Quick request: melting point for each listed item, please.
1. CC[C@H]1COC(=O)N1c1nc(-c2ccc(C#N)cc2)c(F)s1 [Example 12]
2. N#Cc1ccc(-c2csc(N3C(=O)OC[C@@H]3C(F)(F)F)n2)cc1 [Example 66]
3. N#Cc1ccc(-c2csc(N3C(=O)OC[C@H]3CF)n2)cc1 [Example 74]

A)
["157 to 159 °C", "208 to 209 °C", "195 to 196 °C"]

From: patent US7618990B2
